# Tested on: MDA-MB-231 breast
# Test summary: NCI tumour cell line growth inhibition, 48 h
Test readout: log10 TGI (log10 of the value in µM)
Recorded TGI (log10, µM)

COC1=C(NC(C)=O)C(=O)c2nc3n(c2C1=O)CCC3 | 1.43
CCCCc1ccc(Nc2nc(N)c3[nH]cnc3n2)cc1 | 1.59
O=C(NCCc1ccccc1)C(c1csc2ccccc12)N(C(=O)CCl)c1ccc(-c2cnco2)cc1 (stereo unspecified) | 0.13
O=C(CCCCCn1c2ccccc2c2c3c(c4c5ccccc5[nH]c4c21)C(=O)N(O)C3=O)N1CCOCC1 | 0.77

Prompt: # input compound: COc1ccc(OC)c(-c2cc(-c3ccc(Cl)cc3)nn2-c2ccc(S(N)(=O)=O)cc2)c1 ; wanted: its log10 TGI
Completion: 1.28

Prompt: Dear colleague, I am looking for the recorded log10 TGI of the following compound: O=C(/C=C/c1ccco1)c1ccc(Nc2ccnc3cc(Cl)ccc23)cc1
Completion: 1.54

----------
# Tested on: EKVX NSCLC
# Test summary: NCI tumour cell line growth inhibition, 48 h
Test readout: TGI

Past entries and their recorded results:
O=C(CSCC(=O)N/N=C/c1ccc(F)cc1)N/N=C/c1ccc(F)cc1 | > 100 µM
CC1CN=C(c2ccc3c(c2)Cc2cc(C4=NCC(C)N4)ccc2-3)N1 (stereo unspecified) | > 100 µM
O=C(N/C(=C\c1cc(Cl)ccc1Cl)c1nc2ccccc2[nH]1)c1ccccc1 | > 100 µM
CC(=N\O)/C(C)=N/O.CC(=N\O)/C(C)=N/O.[Pd] | > 10 µM

Here is the next item to consider.
Prompt: Endpoint output: TGI of COc1ccc2c(c1)C(CCN)C(=O)N2 (stereo unspecified) . Value?
Completion: > 100 µM

----------
# Test system: T-47D breast
# Test summary: NCI tumour cell line growth inhibition, 48 h
Test readout: GI50

# annotated cases, reported GI50 shown
N#CC1=C(N)Oc2c(sc3c(F)cccc23)C1c1ccc(Cl)cc1 (stereo not given) | 3.43 µM
CCCCCCCC(=O)SCC/C=C/[C@@H]1CC(=O)NCc2cccc(n2)CN(Cc2ccc(Cl)cc2)CC(=O)N[C@@H](C(C)C)C(=O)O1 | 29.3 µM

Prompt: So what does the record say about GI50 for COc1ccc(-n2cc(-c3ccc(Cl)cc3)[nH]c2=S)cc1Cl ?
Completion: 18.4 µM

Prompt: Could you tell me which GI50 is on file for Cc1c(Br)cccc1NC(=O)c1sc2nc3c(cc2c1N)CN(Cc1ccccc1)CC3 ?
Completion: 0.205 µM

Prompt: Form field: reported GI50 of Nc1nc(Cl)cc2c1ncn2C1OC(CO)C(O)C1O (stereo not given)
Completion: > 100 µM

Prompt: Fill blank: measured GI50 of the compound NS(=O)(=O)OC[C@H]1O[C@@H](n2cnc3c(N[C@H]4CCc5ccccc54)ncnc32)[C@H](O)[C@@H]1O is ____.
Completion: 0.156 µM

Prompt: Name the recorded GI50 for O=C(/C=C/c1ccco1)c1ccc(Nc2ccnc3cc(Cl)ccc23)cc1 .
Completion: 82.2 µM

Prompt: Data request, read-out GI50, for COc1cc(C2CC(c3ccc(C)cc3)=NN2C(C)=O)ccc1Oc1ccnc2cc(Cl)ccc12 (stereo not given)
Completion: 2.28 µM

Prompt: Name the reported GI50 value associated with the compound N#CC1=C(N)NC(=S)NC1c1ccc(-c2ccc(-c3nc4ccccc4s3)cc2)o1 (stereo not given)
Completion: 43.2 µM

Prompt: Fill in the blank: the reported GI50 of Cc1cc(C)c2nc(Nc3nc(C)c(C)c(=O)[nH]3)nc(C)c2c1 is ____.
Completion: 1.65 µM

----------
# Tested on: 786-0 renal
# Test summary: NCI tumour cell line growth inhibition, 48 h
Where a SMILES comes first, the peptide text is derived from it. [ ]: non-standard residue; d: D form. The star is where a group is joined. ξ: configuration not given here. 4Abz = Nc1ccc(C(=O)O)cc1; ξL = CC(C)CC(N)C(=O)O; NHOH = ON*
Listed compounds paired with reported GI50

Prompt: Could you share which GI50 value was measured for CC(C)CC(NC(=O)[C@@H]1CCCN1C(=O)CNC(=O)c1ccc(N)cc1)C(=O)N[C@H](C)C(=O)NO (some centres undefined) (H-[4Abz]GP[ξL][dA]-{NHOH}) ?
Completion: > 100 µM

Prompt: Data request, read-out GI50, for O=c1cc(N2CCOCC2)oc2c(-c3ccccc3)cccc12
Completion: 3.13 µM

Prompt: Item N#CC1=C(N)NC(=S)NC1c1ccc(-c2ccc(-c3nc4ccccc4s3)cc2)o1 (centres undefined) has what recorded GI50?
Completion: > 50 µM

Prompt: Which GI50 is reported for this compound? Cc1cc(C)c2nc(Nc3nc(C)c(C)c(=O)[nH]3)nc(C)c2c1
Completion: 2.4 µM

Prompt: Look up GI50 for this compound: O=C1C=Cc2cc3ccccc3c3cccc1c23
Completion: 4.29 µM

Prompt: Find the recorded GI50 belonging to N#CC1=C(N)Oc2c(sc3c(F)cccc23)C1c1ccc(Cl)cc1 (centres undefined) and report it.
Completion: 3.15 µM

Prompt: Data request, read-out GI50, for COc1cc(OC)cc(-c2n[nH]nc2-c2ccc3c(c2)OCO3)c1
Completion: 0.618 µM

Prompt: Query (compound): COC(=O)C1=C(O)C(C(=O)OC)[C@@]2(O)[C@@H](C(=O)OC)C(c3ccc(OC(=O)C(Cc4ccccc4)NC(C)=O)cc3)C[C@@H]1[C@@H]2C(=O)OC (some centres undefined) ; field requested: GI50
Completion: 18.3 µM

Prompt: Given the compound COc1ccc(CNCCN2C(=O)c3ccc4c5c(ccc(c35)C2=O)C(=O)N(CCNCc2ccc(OC)cc2)C4=O)cc1 , what is its reported GI50?
Completion: 1.17 µM

----------
Let's look at some compounds and their measured TGI.
# Test system: SK-OV-3 ovarian
# Test summary: NCI tumour cell line growth inhibition, 48 h
Answer with a number only, understood to be in µM.

C=CC[n+]1c(/C=C2\Sc3ccccc3N2C)sc(-c2ccccc2)c1-c1ccccc1 | 0.92
Cc1cc(C)c2nc(Nc3nc(C)c(C)c(=O)[nH]3)nc(C)c2c1 | 10.3
CCOC(=O)C(C(N)=O)c1nc2cc([N+](=O)[O-])ccc2nc1/C=C(\O)c1ccc(C)cc1 (configuration not stated) | 39.4

Shift focus to the following entry.
Prompt: I have this compound here, CCCCc1ccc(Nc2nc(N)c3[nH]cnc3n2)cc1 , and I need its recorded TGI.
Completion: 52.7

----------
# Test system: MDA-N
# Test summary: NCI tumour cell line growth inhibition, 48 h
Test readout: TGI (µM)
// return numeric value only (unit: µM, not printed)

COc1cc(CNc2nc3cc(C(F)(F)F)ccc3nc2C(=O)O)cc(OC)c1OC | 45.2
COc1c(Cl)ccc(Cl)c1-c1nnc(-c2c(Cl)c(Cl)c(Cl)c(Cl)c2-c2nc3ccc(C(=O)c4ccccc4)cc3[nH]2)o1 | 46.4
COc1c2c(cc3oc(=O)ccc13)OC(C)(C)C=C2 | 91.7

// below: TGI requested for another compound
Prompt: Field: TGI (MDA-N). Entry: COC(=O)c1ccc2c(c1)CC1(C2)Cc2ccc3c(c2C1)CCC3 (stereo not given)
Completion: 17.8

----------
# Test system: EKVX NSCLC
# Test summary: NCI tumour cell line growth inhibition, 48 h
Test readout: GI50

These recorded examples may help you get a feel for the data.
Cc1cc(C)c2nc(Nc3nc(C)c(C)c(=O)[nH]3)nc(C)c2c1 | 2.58 µM
COC(=O)c1ccc2c(c1)CCN2C(=O)c1cc2c(cc1Br)OCO2 | 3.77 µM
COc1ccc(-c2ccc(/C=N/n3cnn(CN4CCN(C)CC4)c3=S)o2)c([N+](=O)[O-])c1 | 34.8 µM
O=C(/C=C/c1ccco1)c1ccc(Nc2ccnc3cc(Cl)ccc23)cc1 | > 100 µM
CCCCC#Cc1c(I)n(C2OC(CO[Si](C)(C)C(C)(C)C)C3OC(C)(C)OC32)c(=O)[nH]c1=O (centres undefined) | 15.3 µM

Now look at this one.
Prompt: Provide value of GI50 for this record tested with EKVX NSCLC: O=c1cc(N2CCOCC2)oc2c(-c3ccccc3)cccc12
Completion: 5.22 µM

----------
# Tested on: SNB-75 CNS
# Test summary: NCI tumour cell line growth inhibition, 48 h
Property: TGI; scope: individual compounds

# annotated cases, reported TGI shown
CC(=O)c1c[nH]c2ccc(-c3ccnc(Nc4ccc(NC(=O)c5cccc(F)c5)c(CN5CCOCC5)c4)n3)cc12 | 0.342 µM
Cc1ccc(N=c2oc3c(ccc4ccccc43)nc2Nc2ccc(C)cc2)cc1 | > 100 µM
COC(CO[Si](C)(C)N[Si](C)(C)OCC(OC)c1ccccc1)c1ccccc1 (centres undefined) | > 100 µM
C=CCn1c(-c2ccc(N=NNc3ccc(-c4n[nH]c(=S)n4CC=C)cc3)cc2)n[nH]c1=S | 10.8 µM
CCCCCCCC(=O)SCC/C=C/[C@@H]1CC(=O)NCc2cccc(n2)CN(Cc2ccc(Cl)cc2)CC(=O)N[C@@H](C(C)C)C(=O)O1 | > 100 µM

Prompt: Given the entry CN(C)c1ccc(C(=C2C=CC(=[N+](C)C)C=C2)c2c(O)c(S(=O)(=O)[O-])cc3cc(S(=O)(=O)O)ccc23)cc1 , report its measured TGI.
Completion: > 100 µM

Prompt: Given O=C1CCCn2c3ccccc3c3ccnc1c32 , state its recorded TGI.
Completion: > 100 µM

Prompt: What does the record list as TGI for C(=C/c1ccc2nc(-c3ccc(/C=C/C=N/NC4=NCCCN4)cc3)cn2c1)/C=N/NC1=NCCCN1 ?
Completion: > 100 µM

Prompt: I have this compound here, COc1cc2[nH]c(=O)[nH]c2c2c(C)c[nH]c12 , and I need its recorded TGI.
Completion: > 100 µM
